These compounds were tested on Epidermal growth factor receptor (Homo sapiens, UniProt P00533, C797S/L858R/T790M); IC50 is the recorded read-out.
Sequence (P00533 25-1210 T790M/C797S/L858R limits assumed): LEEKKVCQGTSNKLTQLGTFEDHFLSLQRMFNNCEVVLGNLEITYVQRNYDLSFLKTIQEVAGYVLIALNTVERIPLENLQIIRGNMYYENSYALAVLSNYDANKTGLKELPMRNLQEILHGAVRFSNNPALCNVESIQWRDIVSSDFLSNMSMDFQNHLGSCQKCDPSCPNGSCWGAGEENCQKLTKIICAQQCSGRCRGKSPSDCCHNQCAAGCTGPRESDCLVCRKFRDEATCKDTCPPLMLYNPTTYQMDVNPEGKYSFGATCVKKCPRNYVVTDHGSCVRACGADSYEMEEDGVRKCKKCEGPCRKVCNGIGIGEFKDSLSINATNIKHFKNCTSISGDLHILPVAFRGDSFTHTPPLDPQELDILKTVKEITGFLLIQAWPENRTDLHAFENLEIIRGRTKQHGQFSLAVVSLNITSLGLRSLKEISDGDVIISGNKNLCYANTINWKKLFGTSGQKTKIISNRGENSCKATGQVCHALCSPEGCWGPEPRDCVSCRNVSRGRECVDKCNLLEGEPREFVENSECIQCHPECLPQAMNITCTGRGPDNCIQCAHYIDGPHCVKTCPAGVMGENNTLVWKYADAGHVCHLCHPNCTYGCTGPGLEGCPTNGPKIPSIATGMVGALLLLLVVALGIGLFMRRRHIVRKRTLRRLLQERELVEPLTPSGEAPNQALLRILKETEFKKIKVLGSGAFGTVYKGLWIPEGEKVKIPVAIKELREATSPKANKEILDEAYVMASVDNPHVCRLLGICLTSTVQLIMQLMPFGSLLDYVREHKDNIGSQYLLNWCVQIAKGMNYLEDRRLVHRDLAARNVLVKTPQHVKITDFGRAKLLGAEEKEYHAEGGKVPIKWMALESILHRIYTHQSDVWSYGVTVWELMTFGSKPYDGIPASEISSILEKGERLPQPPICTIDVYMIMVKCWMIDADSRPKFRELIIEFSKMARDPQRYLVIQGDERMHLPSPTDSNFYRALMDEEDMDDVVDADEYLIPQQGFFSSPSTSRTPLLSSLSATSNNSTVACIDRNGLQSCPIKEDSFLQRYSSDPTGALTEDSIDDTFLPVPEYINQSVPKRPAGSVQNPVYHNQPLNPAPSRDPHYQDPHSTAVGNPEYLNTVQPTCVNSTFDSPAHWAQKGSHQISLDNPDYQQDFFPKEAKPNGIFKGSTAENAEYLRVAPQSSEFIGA

| STRUCTURE_NOTATION | SYSTEM | IC50 |
| --- | --- | --- |
| CCS(=O)(=O)Nc1nc(-c2ccc(F)cc2)c(-c2ccnc(Nc3ccc(N4CCOCC4)cc3)n2)s1 | Epidermal growth factor receptor (Homo sapiens, UniProt P00533, C797S/L858R/T790M) | 37 nM |
| Cc1nc(-c2ccc(F)cc2)c(-c2ccnc(Nc3ccc4c(ccn4CCN(C)C)c3)n2)s1 | Epidermal growth factor receptor (Homo sapiens, UniProt P00533, C797S/L858R/T790M) | 11 nM |
| CCS(=O)(=O)N1CCC(c2nc(-c3ccc(F)cc3)c(-c3ccnc(Nc4ccc(N5CCN(C)CC5)c(C)c4)n3)s2)CC1 | Epidermal growth factor receptor (Homo sapiens, UniProt P00533, C797S/L858R/T790M) | 36 nM |
| CCN(CC)CCn1ccc2cc(Nc3nccc(-c4sc(C5CCN(S(=O)(=O)CC)CC5)nc4-c4ccc(F)cc4)n3)ccc21 | Epidermal growth factor receptor (Homo sapiens, UniProt P00533, C797S/L858R/T790M) | 34 nM |
| CN(C)CCn1ccc2cc(Nc3nccc(-n4ccnc4-c4ccc(Cl)cc4)n3)ccc21 | Epidermal growth factor receptor (Homo sapiens, UniProt P00533, C797S/L858R/T790M) | 86 nM |
| CN(C)CCn1ccc2cc(Nc3nccc(-n4ccnc4-c4ccc(C(F)(F)F)cc4)n3)ccc21 | Epidermal growth factor receptor (Homo sapiens, UniProt P00533, C797S/L858R/T790M) | > 1000 nM |

###

PROCEDURE_TEXT: Oral bioavailability in Sprague-Dawley rat at 50 mg/kg measured upto 24 hrs by HPLC-MS/MS analysis
Assay type: ADME, organism-based
STATED_CONDITIONS: in vivo

| STRUCTURE_NOTATION | UNIT_DESCRIPTOR | bioavailability |
| --- | --- | --- |
| CCS(=O)(=O)N1CCC(c2nc(-c3ccc(F)cc3)c(-c3ccnc(Nc4ccc5c(ccn5CCN(C)C)c4)n3)s2)CC1 | % | 30.7 |

###

SYSTEM: Epidermal growth factor receptor (Homo sapiens, UniProt P00533, C797S/L858R/T790M)
QUANTITY_KIND: log10 of IC50 (log10 of the value in nM)

| STRUCTURE_NOTATION | QUANTITY_KIND | NUMERIC_VALUE |
| --- | --- | --- |
| CN(C)CCn1ccc2cc(Nc3nccc(-n4ccnc4-c4cccc(F)c4)n3)ccc21 | log10 of IC50 | 1.95 |
| CC(=O)Nc1nc(-c2ccc(F)cc2)c(-c2ccnc(Nc3ccc4c(ccn4CCN(C)C)c3)n2)s1 | log10 of IC50 | 0.51 |
| COc1cc(N2CCN(C)CC2)ccc1Nc1nccc(-n2ccnc2-c2ccc(F)cc2)n1 | log10 of IC50 | 2.10 |
| CCS(=O)(=O)N1CCC(c2nc(-c3ccc(F)cc3)c(-c3ccnc(Nc4ccc5c(ccn5CCN(C)C)c4)n3)s2)CC1 | log10 of IC50 | 0.71 |
| CCS(=O)(=O)Nc1nc(-c2ccc(F)cc2)c(-c2ccnc(Nc3ccc4c(ccn4CCN4CCOCC4)c3)n2)s1 | log10 of IC50 | 0.80 |
| CCCCS(=O)(=O)Nc1nc(-c2ccc(F)cc2)c(-c2ccnc(Nc3ccc4c(ccn4CCN(C)C)c3)n2)s1 | log10 of IC50 | 0.63 |
